Target: Nucleoprotein (Lymphocytic choriomeningitis virus (strain Armstrong))
Assay: qHTS for Inhibitors of the Functional Ribonucleoprotein Complex (vRNP) of Lymphocytic Choriomeningitis Arenaviruses (LCMV): LCMV Primary Screen - GLuc reporter signal (AID 1347086); note: nearly all actives have a fitted effect of over 70% in size
Conditions: LCMV minigenome vRNP cell assay, Gaussia luciferase reporter; series mostly up to 57.5 µM
Inconclusive results are not listed. Calls of active or inactive are those of the source. Calls come from the whole dose curve.
Select the correct class. Options are T = active, F = inactive and nothing else.

[[record]]
compound = "Nc1ccc(N=Nc2ccc(-c3ccc(N=Nc4c(S(=O)(=O)O)cc5cc(S(=O)(=O)O)c(N=Nc6ccccc6)c(O)c5c4N)cc3)cc2)c(N)c1"
qualitative_label = "F"


stdin: What call does the record list for C/C1=C\[C@@H](O)C(C(C)C)C(OC(=O)c2ccc(O)cc2)C/C(C)=C/CC1 (stereo partly specified) ?
stdout: F

stdin: What call does the record list for N[C@H](C(=O)O)[C@H]1C[C@@H]1C(=O)O ?
stdout: F

stdin: What call does the record list for COc1cc2c(cc1OC)OC(C)(C)C=C2 ?
stdout: F

stdin: What call does the record list for CC(C)[C@H](O)C(=O)N[C@@H](C)C(=O)N[C@@H]1C(=O)N(C)CCc2ccccc21 ?
stdout: F

stdin: What call does the record list for O=C(O)CCCCCCCCCC(=O)O ?
stdout: F

stdin: What call does the record list for CC(=O)C1CCC2(O)C3CCC4=CC(=O)CCC4(C)C3CCC12C (stereo unspecified) ?
stdout: F

stdin: What call does the record list for Cc1ccc2c(=O)c3cccc(CC(=O)O)c3oc2c1C ?
stdout: T

stdin: What call does the record list for O=C(O)c1ccccc1Nc1ccccc1 ?
stdout: F

stdin: What call does the record list for Cc1ccc2c(c1)c1c(n2CCc2ccc(C)nc2)CCN(C)C1 ?
stdout: F

stdin: What call does the record list for COc1cc(CNC(=O)CCCCCCC(C)C)ccc1O ?
stdout: F

stdin: What call does the record list for O=C1CCC[C@@H]2[C@H]3CCC[N+]4([O-])CCC[C@@H](CN12)[C@@H]34 (stereo partly specified) ?
stdout: F

stdin: What call does the record list for O=Nc1c(-c2c(O)[nH]c3cc(Br)ccc23)[nH]c2ccccc12 ?
stdout: F

stdin: What call does the record list for C[C@H](NC(=O)C(=O)Nc1ccccc1C(C)(C)C)C(=O)N[C@@H](CC(=O)O)C(=O)COc1c(F)c(F)cc(F)c1F ?
stdout: F

stdin: What call does the record list for COc1cc(N)c(Cl)cc1C(=O)OCCN1CCCCC1 ?
stdout: F

stdin: What call does the record list for COc1cc(C(=O)O[C@H]2C/C(C)=C/CC[C@@]3(C)O[C@@H]3[C@H](O)[C@@H]2C(C)C)cc(OC)c1OC ?
stdout: F

stdin: What call does the record list for COc1c2c(c(C)c3c1C(=O)OC3)O[C@@]1(C)CC[C@@]3(O)C(C)(C)OC(=O)CC[C@]3(C)[C@H]1C2 ?
stdout: F

stdin: What call does the record list for O=C(O)Cc1ccc(O)c(O)c1 ?
stdout: F

stdin: What call does the record list for C[C@@H]1C(=O)O[C@H]2[C@H]1CC[C@@]1(C)C(=O)C=C[C@@](C)(O)[C@H]21 ?
stdout: F

stdin: What call does the record list for CCNC(=O)CCCC=CC[C@@H]1[C@H](C=CC(O)CCc2ccccc2)[C@@H](O)C[C@@H]1O (stereo partly specified) ?
stdout: F

stdin: What call does the record list for CC1(C)CCC[C@@]2(C)[C@@H]1CC[C@@]1(C)OC(=O)C[C@H]21 ?
stdout: F
